Test system: MOLT-4 leukemia
assayExplanation: NCI-60 one-dose screen, 48 h
reportedConditions: 10 µM unless noted
About 83,000 compounds went through this panel and 20% of them were active in at least one assay; those are over-represented in the sample as a whole. The source made the active and inactive calls. Rule for the calls: active = growth percent below 10; inactive = the rest.
One label from this list, please: Y for active, N for inactive

# count of solved cases: 5
Per the assay record, what outcome was assigned to Oc1ccc(Br)cc1Sc1cc(Br)ccc1O ?
N

Per the assay record, what outcome was assigned to Cc1c(O)ccc(SC#N)c1C ?
N

Per the assay record, what outcome was assigned to CCCCCCCCCCCC(=O)OC(C)C(=O)NCCCC (configuration not stated) ?
N

Per the assay record, what outcome was assigned to C/C=C/c1cc2c(c(=O)o1)C(=O)[C@@H](O)[C@H](C)O2 ?
N

Per the assay record, what outcome was assigned to Cc1ccc(NC2=CC(=O)C(=O)c3ccccc32)cc1 ?
N

Continuing:
Per the assay record, what outcome was assigned to C1=C(c2ccccc2)c2ccccc2C1 ?
N

Per the assay record, what outcome was assigned to CCCCCCCCC(=O)OCCCC(CCC(CCC1CCCO1)OC(=O)CCCCCCCC)OC(=O)CCCCCCCC (configuration not stated) ?
N

Per the assay record, what outcome was assigned to Cc1cc(C)c([I+]c2c(C)cc(C)cc2C)c(C)c1 ?
Y

Per the assay record, what outcome was assigned to O=C(c1ccccc1)c1ccc(O)c2ncccc12 ?
N

Per the assay record, what outcome was assigned to CCc1cccc(CC)c1N1C(=O)C=CC1=O ?
Y

Per the assay record, what outcome was assigned to N=C(N)Sc1cccc[n+]1[O-] ?
N

Per the assay record, what outcome was assigned to O=C1/C(=C/c2ccccn2)CCc2ccccc21 ?
N

Per the assay record, what outcome was assigned to Cc1cc(C)c(C#N)c(Sc2nc(C)c([N+](=O)[O-])c(C)c2C#N)n1 ?
N

Per the assay record, what outcome was assigned to CCC(C)C(N)C(=O)NC(CC(N)=O)C(=O)NC(CC(C)C)C(=O)NC(CCCCN)C(=O)NC(C)C(=O)NC(CC(C)C)C(=O)NC(C)C(=O)NC(C)C(=O)NC(CC(C)C)C(=O)NC(C)C(=O)NC(CCCCN)C(=O)NC(CCCCN)C(=O)NC(C(=O)NC(CC(C)C)C(N)=O)C(C)CC (configuration not stated) ?
N

Per the assay record, what outcome was assigned to Cc1onc(-c2ccccc2)c1C(=O)N/N=C/c1cc(Cl)cc(Cl)c1O ?
N

Per the assay record, what outcome was assigned to O=C1C=Cc2ccccc2/C1=C/c1nc(-c2ccccc2)oc1O ?
N

Per the assay record, what outcome was assigned to COc1cc(/C=C/C(=O)CC(=O)/C=C/c2ccc(O)c(OC)c2)ccc1O ?
N

Per the assay record, what outcome was assigned to COC(=O)c1nc(=S)[nH]c(C(=O)OC)c1C(=O)c1ccc(Cl)c(Cl)c1 ?
N

Per the assay record, what outcome was assigned to CCC1C[N+]2=C(c3cc(OC)c(OC)cc3CC2)c2c1cc1n2CCc2cc(OC)c(OC)cc2-1 (configuration not stated) ?
N

Per the assay record, what outcome was assigned to O=C1C=CC(O)=CC1=P(c1ccccc1)(c1ccccc1)c1ccccc1 ?
N

Per the assay record, what outcome was assigned to OCCOSCCO ?
N

Per the assay record, what outcome was assigned to CN=C(N)N/N=C(\c1ccccc1)c1ccc(Br)cc1 ?
Y

====

Tested on: UACC-257 melanoma
assayExplanation: NCI-60 one-dose screen, 48 h (100 = growth as untreated, 0 = no growth, -100 = all killed)
reportedConditions: 10 µM unless noted
This is part of a sample that, as a whole, favours compounds with a hit. Of some 83,000 tested, about 20% had one in any assay.
Lab note - cut at 90% for growth: label 1 if strictly below, label 0 if not.

# count of solved cases: 10
Please let me know if COc1ccc(/C=C2/C(=O)ON=C2C)cc1 shows growth below 90%.
label 0

Please let me know if N#CC1c2ccccc2C=CN1C(=O)CCCl (configuration not stated) shows growth below 90%.
label 1

Please let me know if O=C(O)c1cc2c(s1)C(=O)c1sccc1C2=O shows growth below 90%.
label 1

Please let me know if Cc1cc(C(=O)c2ccc(Cl)cc2)ccc1O shows growth below 90%.
label 0

Please let me know if O=C1C=CC(=O)N1c1ccccc1 shows growth below 90%.
label 0

Please let me know if CCOc1ccc(C(C[N+](=O)[O-])Sc2ccccc2N)cc1 (configuration not stated) shows growth below 90%.
label 1

Please let me know if C[C@@]1(CO)[C@H](O)CC[C@@]2(C)[C@H]1CC[C@H]1C[C@@H]3C[C@@]12CC[C@@]3(O)COC(=O)CN shows growth below 90%.
label 1

Please let me know if NC(=S)N/N=C\c1nccc2c(N)cccc12 shows growth below 90%.
label 1

Please let me know if O=C1C=CC(=O)N1c1ccc(O)cc1 shows growth below 90%.
label 0

Please let me know if CCCOS(=O)(=O)c1ccccc1 shows growth below 90%.
label 0

Continuing:
Please let me know if O=[N+]([O-])c1ccc(C(Br)c2ccc([N+](=O)[O-])cc2)cc1 shows growth below 90%.
label 0

====

System: KM12 colon
assayExplanation: NCI-60 one-dose screen, 48 h
reportedConditions: 10 µM unless noted
About 83,000 compounds went through this panel and 20% of them were active in at least one assay; those are over-represented in the sample as a whole. Calls of active or inactive are those of the source. Rule for the calls: active = growth percent below 10; inactive = the rest.
One label from this list, please: active, inactive

# count of solved cases: 5
Per the assay record, what outcome was assigned to CN(Cc1ccccc1)c1ccc(SC#N)cc1 ?
inactive

Per the assay record, what outcome was assigned to CN(C)CCN(C)CC(C)(C)C(=O)/C=C/c1ccc(Cl)c(Cl)c1 ?
active

Per the assay record, what outcome was assigned to COc1ccc(C(Cn2ccnc2)Sc2ccc(Cl)c(Cl)c2)cc1 (stereo unspecified) ?
inactive

Per the assay record, what outcome was assigned to COC1=CC(=O)c2c(O)c3c(c(O)c2C1=O)CC(C)(O)OC3 (stereo unspecified) ?
active

Per the assay record, what outcome was assigned to N#CCc1cccc2ccccc12 ?
inactive

Continuing:
Per the assay record, what outcome was assigned to CCCCCCCCCCCCCCCCSC(=NCC)NCC ?
active

Per the assay record, what outcome was assigned to CC(/C=N/NC(N)=S)Cc1ccc(C(C)C)cc1 (stereo unspecified) ?
inactive

Per the assay record, what outcome was assigned to O=C1C(=O)c2cc([N+](=O)[O-])ccc2-c2ccccc21 ?
active

Per the assay record, what outcome was assigned to Oc1ccc2c(c1)CCc1ccccc1-2 ?
inactive

Per the assay record, what outcome was assigned to Nc1nc(-c2ccccc2)nc(N)c1N=O ?
inactive

Per the assay record, what outcome was assigned to CCCOS(=O)(=O)c1ccccc1 ?
inactive

Per the assay record, what outcome was assigned to O=C(CBr)c1ccc(OC(=O)c2ccccc2)cc1 ?
inactive

Per the assay record, what outcome was assigned to CC1C(c2ccccc2)OCCN1C(=S)Nc1ccc(S(=O)(=O)N2CCCCC2)cc1 (stereo unspecified) ?
inactive

Per the assay record, what outcome was assigned to CCCCCCCCCCCC[S+](C)CC(=O)[O-] (stereo unspecified) ?
inactive

====

System: EKVX NSCLC
assayExplanation: NCI-60 one-dose screen, 48 h
reportedConditions: 10 µM unless noted
This is part of a sample that, as a whole, favours compounds with a hit. Of some 83,000 tested, about 20% had one in any assay. Calls of active or inactive are those of the source. The calls were made as follows: active = growth percent below 10; inactive = the rest.
One label from this list, please: active, inactive

Per the assay record, what outcome was assigned to OC(Cc1cc(CC(O)(C(F)(F)F)C(F)(F)F)nc(CC(O)(C(F)(F)F)C(F)(F)F)c1)(C(F)(F)F)C(F)(F)F ?
inactive

Per the assay record, what outcome was assigned to CC(/C=N/NC(N)=S)Cc1ccc(C(C)C)cc1 (stereo unspecified) ?
inactive

Per the assay record, what outcome was assigned to O=C1C=CC(=O)N1c1ccccc1 ?
inactive

Continuing:
Per the assay record, what outcome was assigned to COC1=CC(=O)c2c(O)c3c(c(O)c2C1=O)CC(C)(O)OC3 (stereo unspecified) ?
inactive

Per the assay record, what outcome was assigned to Oc1ccc2ccccc2c1N=Nc1nccs1 ?
active

Per the assay record, what outcome was assigned to C/C=C/c1cc2c(c(=O)o1)C(=O)[C@@H](O)[C@H](C)O2 ?
inactive

Per the assay record, what outcome was assigned to O=C(CBr)c1ccc(OC(=O)c2ccccc2)cc1 ?
inactive

Per the assay record, what outcome was assigned to N#CC(I)CS(=O)(=O)c1ccccc1 (stereo unspecified) ?
inactive

====

Test system: SK-MEL-28 melanoma
assayExplanation: NCI-60 one-dose screen, 48 h (100 = growth as untreated, 0 = no growth, -100 = all killed)
reportedConditions: 10 µM unless noted
About 83,000 compounds went through this panel and 20% of them were active in at least one assay; those are over-represented in the sample as a whole.
Examples of compounds with documented growth follow.
Give just the numeric value; % need not be written.

Below, 10 compounds whose answers are already recorded.
Give me measured growth, please, for this compound: CC(=O)c1ccc2c(c1)CCc1ccccc1-2
101

Give me measured growth, please, for this compound: O=C1CSC(=S)N1Cc1cccnc1
92.1

Give me measured growth, please, for this compound: O=C1C=CC(=O)N1c1cccc2c1CCCC2
99.1

Give me measured growth, please, for this compound: CCCCCCCCCCCCCCCCCC[S+](C)CC (stereo not drawn)
48.6

Give me measured growth, please, for this compound: C=C(C(N)=O)C(N)C(=O)O (stereo not drawn)
106

Give me measured growth, please, for this compound: CC(C)c1ccc(C(=O)OC2CCCC2)cc1
108

Give me measured growth, please, for this compound: CCC[CH2][Sn]1([CH2]CCC)[O]C2C(CO)OC(n3ccc(N)nc3=O)C2[O]1 (stereo not drawn)
-90.3

Give me measured growth, please, for this compound: Oc1c(C(Nc2ccccc2)c2ccccc2)ccc2cccnc12 (stereo not drawn)
53.3

Give me measured growth, please, for this compound: Nc1cc(-c2ccccc2)ccc1O
93.3

Give me measured growth, please, for this compound: CN1CCC(c2ccccc2)(c2ccccc2)C(=O)C1
119

Continuing:
Give me measured growth, please, for this compound: CCCCCCN(CCCCCC)CCCNc1nccc2ccccc12
13.1

Give me measured growth, please, for this compound: Oc1cc(Cl)ccc1Cc1ccc(Cl)cc1O
89.3

Give me measured growth, please, for this compound: NNc1ccc(Cl)cc1Cl
120
